assay: Stability in human hepatocytes assessed as intrinsic clearance measured upto 120 minutes by LC/MS/MS analysis; format: ADME, cell-based, Hepatocyte; settings: time >=60 min, read-out: CLH
Endpoint: CLint scaled (mL/min/kg)
Give just the numeric value; mL/min/kg need not be written.

QUERY: Reported CLint scaled for CC.Cc1ccc(F)c2cc(C(=O)N[C@@H]3CCC[C@H](N4CC[C@@H](N(C)S(C)(=O)=O)C4)C3)[nH]c12 : what is it?
RESULT: 21.1

* * *

experiment: Clearance in CD-1 mouse at 1 mg/kg, iv by LC-MS/MS analysis; assay type: ADME, organism-based; conditions: in vivo
Endpoint: clearance
Could you give the number and then its unit, please?

# Compound, Measured Result
records = [
    ("CC(=O)N(C)C1CCN(c2cc(F)cc(NC(=O)c3cc4c(F)ccc(C)c4[nH]3)c2)C1 (configuration not stated)", "24.2 mL/min/kg"),
]

API: the following record is the query input.
QUERY: Data request, read-out clearance, for Cc1ccc(F)c2cc(C(=O)N[C@@H]3CCC[C@H](N4CC[C@H](N(C)S(C)(=O)=O)C4)C3)[nH]c12
RESULT: 24.2 mL/min/kg
